Quick reference: melting temperature of the listed items.
- Test system: HeLa Kyoto
- PROTOCOL_NOTES: melting temperature (median over replicates), in situ; higher = more thermally stable
- CONDITION_CONTEXT: cell cycle stage: G1/S
Write the answer as a number in °C, unit excluded.

Example cases with answers are listed next.
INSERT INTO assay_data (sequence_text, property_measured, measured_number) VALUES
  ('MGGGWWWARAARLARLRFRRSLLPPQRPRSGGARGSFAPGHGPRAGASPPPVSELDRADAWLLRKAHETAFLSWFRNGLLASGIGVISFMQSDMGREAAYGFFLLGGLCVVWGSASYAVGLAALRGPMQLTLGGAAVGAGAVLAASLLWACAVGLYMGQLELDVELVPEDDGTASAEGPDEAGRPPPE [TMEM160]', 'melting temperature', 54.2),
  ('MTDRYTIHSQLEHLQSKYIGTGHADTTKWEWLVNQHRDSYCSYMGHFDLLNYFAIAENESKARVRFNLMEKMLQPCGPPADKPEEN [SF3B5]', 'melting temperature', 52.7),
  ('MRRVTLFLNGSPKNGKVVAVYGTLSDLLSVASSKLGIKATSVYNGKGGLIDDIALIRDDDVLFVCEGEPFIDPQTDSKPPEGLLGFHTDWLTLNVGGRYFTTTRSTLVNKEPDSMLAHMFKDKGVWGNKQDHRGAFLIDRSPEYFEPILNYLRHGQLIVNDGINLLGVLEEARFFGIDSLIEHLEVAIKNSQPPEDHSPISRKEFVRFLLATPTKSELRCQGLNFSGADLSRLDLRYINFKMANLSRCNLAHANLCCANLERADLSGSVLDCANLQGVKMLCSNAEGASLKLCNFEDPSGLKANLEGANLKGVDMEGSQMTGINLRVATLKNAKLKNCNLRGATLAGTDLENCDLSGCDLQEANLRGSNVKGAIFEEMLTPLHMSQSVR [KCTD9]', 'melting temperature', 52.3),
  ('MAAAVGRLLRASVARHVSAIPWGISATAALRPAACGRTSLTNLLCSGSSQAKLFSTSSSCHAPAVTQHAPYFKGTAVVNGEFKDLSLDDFKGKYLVLFFYPLDFTFVCPTEIVAFSDKANEFHDVNCEVVAVSVDSHFSHLAWINTPRKNGGLGHMNIALLSDLTKQISRDYGVLLEGSGLALRGLFIIDPNGVIKHLSVNDLPVGRSVEETLRLVKAFQYVETHGEVCPANWTPDSPTIKPSPAASKEYFQKVNQ [PRDX3]', 'melting temperature', 58.2),
  ('MSAQAQMRALLDQLMGTARDGDETRQRVKFTDDRVCKSHLLDCCPHDILAGTRMDLGECTKIHDLALRADYEIASKERDLFFELDAMDHLESFIAECDRRTELAKKRLAETQEEISAEVSAKAEKVHELNEEIGKLLAKAEQLGAEGNVDESQKILMEVEKVRAKKKEAEEEYRNSMPASSFQQQKLRVCEVCSAYLGLHDNDRRLADHFGGKLHLGFIQIREKLDQLRKTVAEKQEKRNQDRLRRREEREREERLSRRSGSRTRDRRRSRSRDRRRRRSRSTSRERRKLSRSRSRDRHRRHRSRSRSHSRGHRRASRDRSAKYKFSRERASREESWESGRSERGPPDWRLESSNGKMASRRSEEKEAGEI [LUC7L]', 'melting temperature', 50.1),
  ('MPNIKIFSGSSHQDLSQKIADRLGLELGKVVTKKFSNQETCVEIGESVRGEDVYIVQSGCGEINDNLMELLIMINACKIASASRVTAVIPCFPYARQDKKDKSRAPISAKLVANMLSVAGADHIITMDLHASQIQGFFDIPVDNLYAEPAVLKWIRENISEWRNCTIVSPDAGGAKRVTSIADRLNVDFALIHKERKKANEVDRMVLVGDVKDRVAILVDDMADTCGTICHAADKLLSAGATRVYAILTHGIFSGPAISRINNACFEAVVVTNTIPQEDKMKHCSKIQVIDISMILAEAIRRTHNGESVSYLFSHVPL [PRPS1]', 'melting temperature', 57.3);

Now for another entry.
Exercise: Retrieve melting temperature measured for MLGSRAAGFARGLRAVALAWLPGWRGRSFALARAAGAPHGGDLQPPACPEPRGRQLSLSAAAVVDSAPRPLQPYLRLMRLDKPIGTWLLYLPCTWSIGLAAEPGCFPDWYMLSLFGTGAILMRGAGCTINDMWDQDYDKKVTRTANRPIAAGDISTFQSFVFLGGQLTLALGVLLCLNYYSIALGAGSLLLVITYPLMKRISYWPQLALGLTFNWGALLGWSAIKGSCDPSVCLPLYFSGVMWTLIYDTIYAHQDKRDDVLIGLKSTALRFGENTKPWLSGFSVAMLGALSLVGVNSGQTAPYYAALGAVGAHLTHQIYTLDIHRPEDCWNKFISNRTLGLIVFLGIVLGNLWKEKKTDKTKKGIENKIEN [COQ2] and print it.
Solution: 55.1

====

Quick reference: solubility change mitosis (log2) of the listed items.
- Test system: HeLa Kyoto
- PROTOCOL_NOTES: solubility change mitosis vs G1/S (difference of NP-40 vs SDS log2 ratios) (log2 ratio difference); higher = more soluble in mitosis
// no unit string in output, number only

INSERT INTO assay_data (sequence_text, property_measured, measured_number) VALUES
  ('MEEYHRHCDEVGFNAEEAHNIVKECVDGVLGGEDYNHNNINQWTASIVEQSLTHLVKLGKAYKYIVTCAVVQKSAYGFHTASSCFWDTTSDGTCTVRWENRTMNCIVNVFAIAIVL [DYNLT3]', 'solubility change mitosis (log2)', -0.243),
  ('MVAGSDAGRALGVLSVVCLLHCFGFISCFSQQIYGVVYGNVTFHVPSNVPLKEVLWKKQKDKVAELENSEFRAFSSFKNRVYLDTVSGSLTIYNLTSSDEDEYEMESPNITDTMKFFLYVLESLPSPTLTCALTNGSIEVQCMIPEHYNSHRGLIMYSWDCPMEQCKRNSTSIYFKMENDLPQKIQCTLSNPLFNTTSSIILTTCIPSSGHSRHRYALIPIPLAVITTCIVLYMNGILKCDRKPDRTNSN [CD58]', 'solubility change mitosis (log2)', 0.319),
  ('MLQGHSSVFQALLGTFFTWGMTAAGAALVFVFSSGQRRILDGSLGFAAGVMLAASYWSLLAPAVEMATSSGGFGAFAFFPVAVGFTLGAAFVYLADLLMPHLGAAEDPQTTLALNFGSTLMKKKSDPEGPALLFPESELSIRIGRAGLLSDKSENGEAYQRKKAAATGLPEGPAVPVPSRGNLAQPGGSSWRRIALLILAITIHNVPEGLAVGVGFGAIEKTASATFESARNLAIGIGIQNFPEGLAVSLPLRGAGFSTWRAFWYGQLSGMVEPLAGVFGAFAVVLAEPILPYALAFAAGAMVYVVMDDIIPEAQISGNGKLASWASILGFVVMMSLDVGLG [SLC39A11]', 'solubility change mitosis (log2)', -0.134),
  ('MDALQLANSAFAVDLFKQLCEKEPLGNVLFSPICLSTSLSLAQVGAKGDTANEIGQVLHFENVKDVPFGFQTVTSDVNKLSSFYSLKLIKRLYVDKSLNLSTEFISSTKRPYAKELETVDFKDKLEETKGQINNSIKDLTDGHFENILADNSVNDQTKILVVNAAYFVGKWMKKFSESETKECPFRVNKTDTKPVQMMNMEATFCMGNIDSINCKIIELPFQNKHLSMFILLPKDVEDESTGLEKIEKQLNSESLSQWTNPSTMANAKVKLSIPKFKVEKMIDPKACLENLGLKHIFSEDTSDFSGMSETKGVALSNVIHKVCLEITEDGGDSIEVPGARILQHKDELNADHPFIYIIRHNKTRNIIFFGKFCSP [SERPINB5]', 'solubility change mitosis (log2)', -0.146),
  ('MAAAEEEPKPKKLKVEAPQALRENILFGMGNPLLDISAVVDKDFLDKYSLKPNDQILAEDKHKELFDELVKKFKVEYHAGGSTQNSIKVAQWMIQQPHKAATFFGCIGIDKFGEILKRKAAEAHVDAHYYEQNEQPTGTCAACITGDNRSLIANLAAANCYKKEKHLDLEKNWMLVEKARVCYIAGFFLTVSPESVLKVAHHASENNRIFTLNLSAPFISQFYKESLMKVMPYVDILFGNETEAATFAREQGFETKDIKEIAKKTQALPKMNSKRQRIVIFTQGRDDTIMATESEVTAFAVLDQDQKEIIDTNGAGDAFVGGFLSQLVSDKPLTECIRAGHYAASIIIRRTGCTFPEKPDFH [ADK]', 'solubility change mitosis (log2)', -0.112),
  ('MSMEDYDFLFKIVLIGNAGVGKTCLVRRFTQGLFPPGQGATIGVDFMIKTVEINGEKVKLQIWDTAGQERFRSITQSYYRSANALILTYDITCEESFRCLPEWLREIEQYASNKVITVLVGNKIDLAERREVSQQRAEEFSEAQDMYYLETSAKESDNVEKLFLDLACRLISEARQNTLVNNVSSPLPGEGKSISYLTCCNFN [RAB30]', 'solubility change mitosis (log2)', -0.0812);

Exercise: Retrieve solubility change mitosis (log2) measured for MPKVKSGAIGRRRGRQEQRRELKSAGGLMFNTGIGQHILKNPLIINSIIDKAALRPTDVVLEVGPGTGNMTVKLLEKAKKVVACELDPRLVAELHKRVQGTPVASKLQVLVGDVLKTDLPFFDTCVANLPYQISSPFVFKLLLHRPFFRCAILMFQREFALRLVAKPGDKLYCRLSINTQLLARVDHLMKVGKNNFRPPPKVESSVVRIEPKNPPPPINFQEWDGLVRITFVRKNKTLSAAFKSSAVQQLLEKNYRIHCSVHNIIIPEDFSIADKIQQILTSTGFSDKRARSMDIDDFIRLLHGFNAEGIHFS [DIMT1] and print it.
Solution: 0.276

Exercise: Retrieve solubility change mitosis (log2) measured for MRAPIPEPKPGDLIEIFRPFYRHWAIYVGDGYVVHLAPPSEVAGAGAASVMSALTDKAIVKKELLYDVAGSDKYQVNNKHDDKYSPLPCSKIIQRAEELVGQEVLYKLTSENCEHFVNELRYGVARSDQVRDVIIAASVAGMGLAAMSLIGVMFSRNKRQKQ [PLA2G16] and print it.
Solution: -0.137

Exercise: Retrieve solubility change mitosis (log2) measured for MEELLRRELGCSSVRATGHSGGGCISQGRSYDTDQGRVFVKVNPKAEARRMFEGEMASLTAILKTNTVKVPKPIKVLDAPGGGSVLVMEHMDMRHLSSHAAKLGAQLADLHLDNKKLGEMRLKEAGTVGRGGGQEERPFVARFGFDVVTCCGYLPQVNDWQEDWVVFYARQRIQPQMDMVEKESGDREALQLWSALQLKIPDLFRDLEIIPALLHGDLWGGNVAEDSSGPVIFDPASFYGHSEYELAIAGMFGGFSSSFYSAYHGKIPKAPGFEKRLQLYQLFHYLNHWNHFGSGYRGSSLNIMRNLVK [FN3KRP] and print it.
Solution: 0.00242

Exercise: Retrieve solubility change mitosis (log2) measured for MSSPQAPEDGQGCGDRGDPPGDLRSVLVTTVLNLEPLDEDLFRGRHYWVPAKRLFGGQIVGQALVAAAKSVSEDVHVHSLHCYFVRAGDPKLPVLYQVERTRTGSSFSVRSVKAVQHGKPIFICQASFQQAQPSPMQHQFSMPTVPPPEELLDCETLIDQYLRDPNLQKRYPLALNRIAAQEVPIEIKPVNPSPLSQLQRMEPKQMFWVRARGYIGEGDMKMHCCVAAYISDYAFLGTALLPHQWQHKVHFMVSLDHSMWFHAPFRADHWMLYECESPWAGGSRGLVHGRLWRQDGVLAVTCAQEGVIRVKPQVSESKL [ACOT8] and print it.
Solution: -0.588

Origin of measurements: the supplement of paper PMC5998384
